Catalogue of compounds with associated AC50
Test system: Plasmodium falciparum Dd2-attB (parental line), asexual blood stages
Construct: Dd2-attB, the isogenic parental line
ASSAY_METHOD_TEXT: microbe, parasite or virus in culture
Parameters: replicate k of 3 (each line is one of three independent assays; the three lines of one compound and parasite line follow each other)
MEASUREMENT_PARAMETERS: Plasmodium falciparum, DD2, 72 h; n = 1; read-out: Individual replicates / Log AC50 (converted)
Answer format: numeric, µM implied, no suffix.

Value sought: AC50, system Plasmodium falciparum Dd2-attB (parental line), asexual blood stages, item CC(Cc1cnccn1)Nc1cnc2c(O)ccc(C(=O)O)c2c1 (stereo not shown) [NCGC00241766-01] . Result: 15.9

Value sought: AC50, system Plasmodium falciparum Dd2-attB (parental line), asexual blood stages, item O=C(O)c1ccnc(-n2ncc(C(OCCN3CCCCC3)c3ccc(Cl)cc3)c2-c2ccccc2)c1 (stereo not shown) [NCGC00487049-01] . Result: 15.9

Value sought: AC50, system Plasmodium falciparum Dd2-attB (parental line), asexual blood stages, item Oc1ccc(/C=C/c2ccccc2)c2cccnc12 [NCGC00184900-01] . Result: 6.33

Now examine the next entry.
Value sought: AC50, system Plasmodium falciparum Dd2-attB (parental line), asexual blood stages, item Cc1cccc2nc(-c3ccccn3)c(Nc3ccc(F)cc3)n12 [NCGC00106061-03] . Result: 5.03

* * *

ASSAY_METHOD_TEXT: in vitro
MEASUREMENT_PARAMETERS: human, HepG2-A16-CD81EGFP cells, uninfected
Under this convention, met denotes viability at 48 h, 1 µM strictly below 90% and not met denotes viability at 48 h, 1 µM at or above 90%.

Previously resolved entries follow.
Inquiry: Check if viability at 48 h, 1 µM falls below 90% for CN(CCNC(=O)c1cc2c(-c3ccccc3F)nn(C)c2s1)C1CCCCC1 [MLS001199243-01] .
Reply text: met

Inquiry: Check if viability at 48 h, 1 µM falls below 90% for CCN(CC)CCCC(C)Nc1cc(C=Cc2ccccc2Cl)nc2cc(Cl)ccc12 (centres unmarked) [NCGC00160524-01] .
Reply text: not met

Inquiry: Check if viability at 48 h, 1 µM falls below 90% for Fc1ccc(N2CCCN(C[C@H]3[C@@H]4CNC[C@@H]43)CC2)cc1 [NCGC00435915-01] .
Reply text: not met

Inquiry: Check if viability at 48 h, 1 µM falls below 90% for O=C(Nc1nc(-c2ccccn2)cs1)c1cccc(S(=O)(=O)N2CCOCC2)c1 [MLS002161290-01] .
Reply text: not met

Inquiry: Check if viability at 48 h, 1 µM falls below 90% for CCOC(=O)c1cnc2cc(OCC(C)C)c(OCC(C)C)cc2c1O [NCGC00167562-01] .
Reply text: met

Inquiry: Check if viability at 48 h, 1 µM falls below 90% for Cc1nc(N2CCC(C)CC2)c2c(C)c(C(=O)Nc3ccc(C(F)(F)F)cc3)sc2n1 [MLS000682669-01] .
Reply text: not met

Here's the next entry for you.
Inquiry: Check if viability at 48 h, 1 µM falls below 90% for CCN1CCCC1CNc1ncnc2c1[nH]c1ccc(Cl)cc12 (centres unmarked) [MLS000041736-01] .
Reply text: not met

* * *

Catalogue of compounds with associated viability at 3 µM
ASSAY_METHOD_TEXT: in vitro
MEASUREMENT_PARAMETERS: human, hepg2-a16-cd81egfp cells, % viability
Answer format: numeric, % implied, no suffix.

Example entries and their recorded answers appear below.
// viability at 3 µM value for CN(C(Cc1ccc(O[S+](=O)([O-])c2cccc3cnccc23)cc1)C(=O)N1CCN(c2ccccc2)CC1)[S+](=O)([O-])c1cccc2cnccc12 (stereo not drawn) : 79.2

// viability at 3 µM value for COc1cc(C(=O)OCC(=O)N2CCCCC2C)cc(NC(=O)c2cccs2)c1OC (stereo not drawn) : 97.3

// viability at 3 µM value for COc1cc2ccccc2cc1C(=O)N1CCCC(C(F)(F)F)C1 (stereo not drawn) : 86

// viability at 3 µM value for `Cc1cccc(-c2cc3nc(C)c(C)c(NCCCn4ccnc4)n3n2)c1` : 87.2

// viability at 3 µM value for `CCN(CC)Cc1cc2[nH]c3c4ccc(Cl)cc4ncc3c2cc1OC` : 101

// viability at 3 µM value for `CCC(=O)Nc1cc(=O)[nH]c2nc(-c3ccc(Cl)cc3)nn12` : 92

---
// viability at 3 µM value for `O=[S+]([O-])(c1ccc(Cl)cc1)N1CCN(C(=S)Nc2ccc(F)c(Cl)c2)CC1` : 85.6

// viability at 3 µM value for OC(CNC1CCCc2ccccc21)COc1c(Cl)cccc1Cl (stereo not drawn) : 100

// viability at 3 µM value for `Cc1ccc(-c2nn(-c3ccccc3)c3[nH]c(=O)c(CNCc4ccccc4)cc23)cc1` : 95.4
